Target: Cytochrome P450 2D6 (Homo sapiens)
Experiment: Cytochrome panel assay with activity outcomes
Conditions: recombinant CYP, pro-luciferin dealkylation, luminescence, p450-cyp2d6; series mostly up to 57.1 µM
In all, about 16,000 compounds went through this assay and about 2,600 (16%) were called active. Inconclusive results (about 20%) are left out. Calls follow the shape of the dose curve; as a rule, active = well fitted curve in the direction sought with a large enough effect; inconclusive = small, poorly fitted or top-dose-only effect, or effect the other way; inactive = no such curve, though single readings can be large or run the other way. A selection follows.
Give one outcome, nothing more. List: active, inactive

- Query Smiles: "CC(=O)Nc1ccc(S(=O)(=O)N2CCC(N(C)CCC(C)C)CC2)cc1"
  Cat: "active"
- Query Smiles: "Cc1cc(C)c(NC(=O)NC(=O)c2ccc(F)cc2)c(C)n1"
  Cat: "inactive"
- Query Smiles: "Cc1nc(S(=O)(=O)NC2CCCCC2)c(C#N)c(C)c1Cl"
  Cat: "inactive"

Exercise: How was C[C@]1(C2CCCC2)Cc2cc(OCC(=O)O)c(Cl)c(Cl)c2C1=O classified in this test?
Key: inactive

Exercise: Could you please tell me the result logged for Cc1ccc(S(=O)(=O)N2CCC(C(=O)NCCCOC(C)C)CC2)cc1 in this assay?
Key: inactive

Exercise: Hi, sorry to bother you, what did the test record for COc1ccc2c(c1)-c1ccccc1S(=O)(=O)N2C(C)=O ?
Key: inactive

Exercise: Given O=C(c1ccc(Cl)cc1)N1CCN(c2cc(=O)[nH]nc2-c2ccccc2)CC1 , state the outcome it received in this test.
Key: inactive

Exercise: Tell me the recorded outcome of this test for CN(C)CC/C=C1\c2ccccc2Sc2ccc(Cl)cc21 .
Key: active

Exercise: What did the test return for Cc1ccc(C)c(NC(=S)N(CCc2nc3cc(C)c(C)cc3[nH]2)Cc2cccnc2)c1 ?
Key: active

Exercise: Please let me know the test result on file for CCOC(=O)CSc1n[nH]c(-c2cccnc2)n1 .
Key: inactive

Exercise: Hi, sorry to bother you, what did the test record for CC(C)(C)Cn1nc(-c2ccc(Cl)cc2)c2c(N)ncnc21 ?
Key: inactive

Exercise: Record lookup: outcome of this test for CCOC(=O)c1sc(NC(=O)CCCCCN2C(=O)c3cccc4cccc(c34)C2=O)nc1C ?
Key: inactive

Exercise: Hi team, can someone confirm the assay call for CC(/C=N/n1c(-c2cccnc2)n[nH]c1=S)=C\c1ccccc1 ?
Key: active

Exercise: Look up the recorded call for Nc1ccc(CCNc2ncnc3c2ncn3[C@@H]2O[C@@H](CO)[C@H](O)[C@@H]2O)cc1 in this test.
Key: inactive

Exercise: Just curious, what result did Cc1cccc(NC(=S)N(CCc2nc3cc(C)c(C)cc3[nH]2)Cc2cccnc2)c1 get here?
Key: active

Exercise: Which result was noted for this compound in the test: CC(=C/c1ccccc1)/C=N/n1cnnc1
Key: inactive

Exercise: What did this assay record as the result for CCc1ccc2c(c1)cc(CN(C(=S)Nc1cccc(C)c1)C1CC1)c1nnnn12 ?
Key: inactive

* * *

# activity, negative = inhibition per record follows
Target: Cytochrome P450 2D6 (Homo sapiens)
Assay: Cytochrome panel assay with activity outcomes; as to activity, negative = inhibition: % is scaled to controls: 0 for no effect and ±100 for the full control effect
Details: recombinant CYP, pro-luciferin dealkylation, luminescence, p450-cyp2d6; series mostly up to 57.1 µM
About 2,600 (16%) of roughly 16,000 compounds were called active. Inconclusive results (about 20%) are left out. The list is a sample of the results.

Exercise: Given the entry O=C(O)c1cc(N=Cc2ccccc2O)cc(C(=O)O)c1 , report its measured activity, negative = inhibition.
Key: 7.13% [at 11.4 µM] (inactive)

* * *

Molecular target: Cytochrome P450 2D6 (Homo sapiens)
Experiment: Cytochrome panel assay with activity outcomes
Conditions: recombinant CYP, pro-luciferin dealkylation, luminescence, p450-cyp2d6; series mostly up to 57.1 µM
About 2,600 (16%) of roughly 16,000 compounds were called active. Inconclusive results (about 20%) are left out. Calls follow the shape of the dose curve; as a rule, active = well fitted curve in the direction sought with a large enough effect; inconclusive = small, poorly fitted or top-dose-only effect, or effect the other way; inactive = no such curve, though single readings can be large or run the other way. A selection follows.
// allowed return values: active, inactive

- Compound: "Cn1c(=O)c(-c2ccccc2)nc2cnc(N3CCOCC3)nc21"
  Cat: "inactive"
- Compound: "O=C1CN(C(=O)c2ccc(Br)o2)C(c2ccc(F)cc2)c2cc(Cl)ccc2N1 (stereo unspecified)"
  Cat: "inactive"
- Compound: "NS(=O)(=O)c1ccc(CNC(=O)/C=C/c2c(Cl)cccc2Cl)cc1"
  Cat: "inactive"
- Compound: "COCCn1c(=O)c(-c2cccc(F)c2)nc2cncnc21"
  Cat: "inactive"
- Compound: "CCOc1cc(CNCCc2ccc(S(N)(=O)=O)cc2)ccc1OCc1ccc(Cl)cc1"
  Cat: "active"

Exercise: Look up the recorded call for CCn1ccc(C(=O)NC2=C(C#N)CCC2)n1 in this test.
Key: inactive

Exercise: Short answer needed: outcome of this test for CCc1ccc(NC(=O)C2CCN(S(=O)(=O)c3c(C)[nH]c(=O)[nH]c3=O)CC2)cc1 ?
Key: inactive

Exercise: Could you please tell me the result logged for CCOc1ccc(CCNC(=O)C2CCN(S(=O)(=O)CC)CC2)cc1OCC in this assay?
Key: inactive

Exercise: Please state the recorded outcome for this compound: CC(=O)N1CCC[C@@]2(CCN(c3ccncc3)C2)C1
Key: inactive

Exercise: Hi team, can someone confirm the assay call for NS(=O)(=O)c1ccc(CCNC(=O)C2CCCN2C(=O)OCc2ccccc2)cc1 (stereo unspecified) ?
Key: inactive

Exercise: Answer briefly: the call reported for COCC(=O)N1CCC2(CCCN(Cc3ccccc3OC)C2)CC1 in this assay.
Key: inactive

* * *

Target: Cytochrome P450 2D6 (Homo sapiens) (UniProt P10635)
Sequence (P10635 whole entry, looked up): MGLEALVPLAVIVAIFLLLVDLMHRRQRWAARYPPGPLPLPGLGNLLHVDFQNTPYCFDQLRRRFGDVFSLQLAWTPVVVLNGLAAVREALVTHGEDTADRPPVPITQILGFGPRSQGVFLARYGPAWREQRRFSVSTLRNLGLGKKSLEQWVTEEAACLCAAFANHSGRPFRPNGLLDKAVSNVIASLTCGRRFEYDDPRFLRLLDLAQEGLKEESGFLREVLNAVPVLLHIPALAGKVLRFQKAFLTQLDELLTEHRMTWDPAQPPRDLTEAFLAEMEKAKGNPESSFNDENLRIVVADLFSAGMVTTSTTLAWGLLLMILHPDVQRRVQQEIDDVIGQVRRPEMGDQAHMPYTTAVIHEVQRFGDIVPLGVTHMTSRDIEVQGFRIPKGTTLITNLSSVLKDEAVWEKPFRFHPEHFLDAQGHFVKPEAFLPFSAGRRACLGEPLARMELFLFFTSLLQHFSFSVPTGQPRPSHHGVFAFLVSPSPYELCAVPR
Experiment: Cytochrome panel assay with activity outcomes
Details: recombinant CYP, pro-luciferin dealkylation, luminescence, p450-cyp2d6; series mostly up to 57.1 µM
In all, about 16,000 compounds went through this assay and about 2,600 (16%) were called active. Not shown: some 20% with an inconclusive outcome. The call rests on the fitted dose curve; in most records, active means well fitted curve in the direction sought with a large enough effect; inconclusive means small, poorly fitted or top-dose-only effect, or effect the other way; inactive means no such curve, though single readings can be large or run the other way. The list is a sample of the results.
Write down one outcome, taken from YES for active, NO for inactive

Below, 5 molecules whose answers are already recorded.
- Query Smiles: "O=C1Nc2ccccc2Nc2ncccc21"
  Cat: "NO"
- Query Smiles: "CCCC[C@H](CC)CN1CN(C[C@@H](CC)CCCC)CC(C)(N)C1"
  Cat: "YES"
- Query Smiles: "O=C1c2ccccc2C(=O)N1CC(=O)N1c2ccccc2CCc2ccccc21"
  Cat: "NO"
- Query Smiles: "Cc1nnsc1SCC(=O)O"
  Cat: "NO"
- Query Smiles: "C=CCSC1=Nc2sccc2C2=NC(=O)CN12"
  Cat: "NO"

Attention now shifts to the item below.
Exercise: What did this assay record as the result for COc1ccc(-n2c(=O)c(-c3cc(F)cc(F)c3)nc3cncnc32)cc1 ?
Key: NO

* * *

Target: Cytochrome P450 2D6 (Homo sapiens)
Test: Cytochrome panel assay with activity outcomes
Conditions: recombinant CYP, pro-luciferin dealkylation, luminescence, p450-cyp2d6; series mostly up to 57.1 µM
Hit rate of the full screen: of about 16,000 compounds, about 2,600 (16%) were called active. About 20% were inconclusive and are not listed. The call rests on the fitted dose curve; in most records, active means well fitted curve in the direction sought with a large enough effect; inconclusive means small, poorly fitted or top-dose-only effect, or effect the other way; inactive means no such curve, though single readings can be large or run the other way. Only a sample is shown.
Tick one outcome: t for active, f for inactive

Record excerpt, results attached:
- Query Smiles: "CN(Cc1cc(Cl)cc(Cl)c1O)Cc1c(O)ccc2ccccc12"
  System: "Cytochrome P450 2D6 (Homo sapiens)"
  Cat: "t"
- Query Smiles: "NCC[C@H](O)C(=O)N[C@H]1C[C@@H](N)[C@@H](O[C@H]2O[C@@H](CN)[C@@H](O)[C@@H](O)[C@@H]2O)[C@@H](O)[C@@H]1O[C@H]1O[C@@H](CO)[C@@H](O)[C@@H](N)[C@@H]1O"
  System: "Cytochrome P450 2D6 (Homo sapiens)"
  Cat: "f"
- Query Smiles: "CC(C)c1ccc(-c2nnn(CCC(=O)O)n2)cc1"
  System: "Cytochrome P450 2D6 (Homo sapiens)"
  Cat: "f"
- Query Smiles: "N=c1ccn2c(n1)O[C@@H]1[C@@H](O)[C@H](CO)O[C@H]12"
  System: "Cytochrome P450 2D6 (Homo sapiens)"
  Cat: "f"
- Query Smiles: "COc1ccc(CCNC(=O)COc2ccc(S(=O)(=O)NC3CCCCC3)cc2Cl)cc1"
  System: "Cytochrome P450 2D6 (Homo sapiens)"
  Cat: "t"

Now look at this one.
Exercise: Please share the test call associated with Cc1cc(NC(=O)c2c([N+](=O)[O-])cnn2C)no1 .
Key: f

* * *

Biological target: Cytochrome P450 2D6 (Homo sapiens) (UniProt P10635)
Assay: Cytochrome panel assay with activity outcomes; as to activity, negative = inhibition: % is scaled to controls: 0 for no effect and ±100 for the full control effect
Settings: recombinant CYP, pro-luciferin dealkylation, luminescence, p450-cyp2d6; series mostly up to 57.1 µM
The campaign covered roughly 16,000 compounds. About 2,600 (16%) were called active. Not shown: some 20% with an inconclusive outcome. Only a sample is shown.
Let's look at some compounds and their measured activity, negative = inhibition.

Some compounds with known activity, negative = inhibition results, for comparison:
- Query Smiles: "CC(=O)Nc1ccc(-c2cc(C(=O)O)c3cc4ccccc4cc3n2)cc1"
  System: "Cytochrome P450 2D6 (Homo sapiens) (UniProt P10635)"
  Measured Result: "-6.98% [at 11.4 µM] (inactive)"
- Query Smiles: "CN(C)CCCN=c1c2ccccc2n(C)c2[nH]c(=O)n(C)c(=O)c12"
  System: "Cytochrome P450 2D6 (Homo sapiens) (UniProt P10635)"
  Measured Result: "13.4% [at 11.4 µM] (inactive)"
- Query Smiles: "C/C(CCC(=O)OC[C@@H]1O[C@H](C#Cc2ccccc2)C=C[C@@H]1Oc1ccc(C)cc1)=N/OC[C@@H](O)[C@H]1O[C@H]2OC(C)(C)O[C@H]2[C@@H]1O"
  System: "Cytochrome P450 2D6 (Homo sapiens) (UniProt P10635)"
  Measured Result: "14.6% [at 11.4 µM] (inactive)"

Exercise: Field request: activity, negative = inhibition | item: CCOC(=O)N/N=C1/C[C@@H](O)[C@@H](O)[C@@H]2[C@@H]3C(=O)N(Cc4ccc5c(c4)OCO5)C(=O)[C@H]3CC[C@@H]12
Key: 6.47% [at 11.4 µM] (inactive)

Exercise: Report activity, negative = inhibition for COc1ccc(-c2cnnc(CCCn3ccnc3-c3ccccc3)n2)cc1 please.
Key: -4.95% [at 11.4 µM] (inactive)

Exercise: Consider the compound shown here: C[C@@H](c1ccccc1)N1C(=O)[C@H]2[C@H]3[C@H](O)[C@H](O)C/C(=N/OC[C@@H](O)COCc4ccco4)[C@H]3CC[C@@H]2C1=O What is its recorded activity, negative = inhibition?
Key: -0.906% [at 11.4 µM] (inactive)

Exercise: Please report the recorded activity, negative = inhibition for C[C@@]12CCC(=O)C=C1CC[C@H]1[C@@H]2[C@@H](O)C[C@]2(C)[C@@H]1CC[C@@]2(O)C(=O)CO .
Key: 17% [at 11.4 µM] (inactive)

Exercise: What does the record list as activity, negative = inhibition for C[C@@H]1O[C@@H](O)[C@@H](O)[C@H](O)[C@H]1O ?
Key: -0.841% [at 11.4 µM] (inactive)

The reported numbers originate from PubChem BioAssay AID1851.
